Test system: AR 1.0 cells
measurementProtocol: Proliferation/toxicity assay, compound alone and with cytotoxic agent (sulphorhodamine B)
Type: cell-based, mouse
conditionDescription: compound alone; read-out: COMPOUND TOXICITY (IC50 μM)
// reported IC50 per item
State just the number; it will be interpreted in µM.

compound	targetOrSystem	measuredEndpoint	unitsText	endpointResult
O=c1[nH]/c(=C\c2ccncc2)c(=O)n(Cc2ccccc2)/c1=C\c1ccccc1 [Compound 1839]	AR 1.0 cells	IC50	µM	30

Now look at this one.
Reported IC50, compound O=c1[nH]/c(=C\c2ccncc2)c(=O)n(Cc2ccccc2)/c1=C\c1ccccc1 [Compound 1840] : ____
5

Each recorded value in this set is attributed to patent US5861400A.
